Test system: HT-29
Assay: Potency index, ratio of oleanolic acid IC50 to compound IC50 for growth inhibition of human HT-29 cells
Assay type: functional
For each entry below, report its Ratio IC50 value.
Respond using a number only.

Ask: Given the compound "CC1(C)CC[C@]2(C(=O)NCCCCCCCCCCNC(=O)[C@]34CCC(C)(C)C[C@H]3C3=CC[C@@H]5[C@@]6(C)CC[C@H](O)C(C)(C)[C@@H]6CC[C@@]5(C)[C@]3(C)CC4)CC[C@]3(C)C(=CC[C@@H]4[C@@]5(C)CC[C@H](O)C(C)(C)[C@@H]5CC[C@]43C)[C@@H]2C1" , what is its reported Ratio IC50?
Reply: 3.9

Ask: Note, next up: "COCCOCCOCC(=O)NCCCNC(=O)[C@]12CCC(C)(C)C[C@H]1C1=CC[C@@H]3[C@@]4(C)CC[C@H](O)C(C)(C)[C@@H]4CC[C@@]3(C)[C@]1(C)CC2"
Reply: 3.4

Ask: Moving on to the next compound: "CC1(C)CC[C@]2(C(=O)NCCCCCCN)CC[C@]3(C)C(=CC[C@@H]4[C@@]5(C)CC[C@H](O)C(C)(C)[C@@H]5CC[C@]43C)[C@@H]2C1"
Reply: 92.3

Ask: Check "CC1(C)CC[C@]2(C(=O)NCCCN)CC[C@]3(C)C(=CC[C@@H]4[C@@]5(C)CC[C@H](O)C(C)(C)[C@@H]5CC[C@]43C)[C@@H]2C1" too.
Reply: 108.3

Ask: And the next one, "CC1(C)CC[C@]2(C(=O)NCCCCCCNC(=O)[C@]34CCC(C)(C)C[C@H]3C3=CC[C@@H]5[C@@]6(C)CC[C@H](O)C(C)(C)[C@@H]6CC[C@@]5(C)[C@]3(C)CC4)CC[C@]3(C)C(=CC[C@@H]4[C@@]5(C)CC[C@H](O)C(C)(C)[C@@H]5CC[C@]43C)[C@@H]2C1" ?
Reply: 5.8

Ask: What about this compound? "CC1(C)CC[C@]2(C(=O)NCCCNC(=O)[C@]34CCC(C)(C)C[C@H]3C3=CC[C@@H]5[C@@]6(C)CC[C@H](O)C(C)(C)[C@@H]6CC[C@@]5(C)[C@]3(C)CC4)CC[C@]3(C)C(=CC[C@@H]4[C@@]5(C)CC[C@H](O)C(C)(C)[C@@H]5CC[C@]43C)[C@@H]2C1"
Reply: 5.9

Ask: Note, next up: "CC1(C)CC[C@]2(C(=O)NCCCCCCCCCCN)CC[C@]3(C)C(=CC[C@@H]4[C@@]5(C)CC[C@H](O)C(C)(C)[C@@H]5CC[C@]43C)[C@@H]2C1"
Reply: 91.1

Ask: Another: "COCCOCCOCC(=O)NCCCCCCNC(=O)[C@]12CCC(C)(C)C[C@H]1C1=CC[C@@H]3[C@@]4(C)CC[C@H](O)C(C)(C)[C@@H]4CC[C@@]3(C)[C@]1(C)CC2"
Reply: 36.6

Ask: Same again, this time with "COCCOCCOCC(=O)NCCCCCCCCCCNC(=O)[C@]12CCC(C)(C)C[C@H]1C1=CC[C@@H]3[C@@]4(C)CC[C@H](O)C(C)(C)[C@@H]4CC[C@@]3(C)[C@]1(C)CC2"
Reply: 36.1
